Where these numbers come from: paper PMC2756588

I'd be grateful if you could share measured SPOT intensity for these entries.
- test_target: T1, Sla1-2, P32790
- T1 sequence (P32790 60-140, looked up): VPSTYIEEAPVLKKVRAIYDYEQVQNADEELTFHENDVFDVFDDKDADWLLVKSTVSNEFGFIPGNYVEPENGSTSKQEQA
- measurement_notes: SPOT array
- assay_conditions: median of control spots 712
Give bare numbers.

Worked examples follow.
WRPRIVPILPYITRL	0
MPAPPPPPPPPPGAF	0
FIRKRAPTPPAPSRS	0

Hey, can you go through the list below and give me SPOT intensity for every item?
1. NSVPIMPTLPPRPYI
2. STPQTMRQAPKRPDA
3. DRIRMFIRFPKFLLE
4. RKNRAPPQRPRFNRE
5. NTMKKRPAPPSLPSL
6. SAPDIPPRSPNRNAH
7. RVRKTHVPASKRPSG
8. GQYRRTIVIPRRFFT

// result
0
2
0
4
1
423
1
8
